For each entry below, report its TGI value.
Test system: MDA-MB-435
Assay: NCI tumour cell line growth inhibition, 48 h

**Q:** Requested read-out TGI, target or system MDA-MB-435, entry CCOc1cnc(C(O)(c2ccccc2)c2ccccc2)o1
**A:** > 100 µM

**Q:** Requested read-out TGI, target or system MDA-MB-435, entry O=c1c(-c2ccccc2)nnc2n(Cc3ccccc3)c3ccccc3n12
**A:** > 100 µM

**Q:** Requested read-out TGI, target or system MDA-MB-435, entry CCSCC1CC(O)(c2ccccc2)C(c2ccccc2)C(c2ccc(F)cc2)O1 (centres undefined)
**A:** 5.24 µM

**Q:** Requested read-out TGI, target or system MDA-MB-435, entry CCCCCCCCCCCC[C@@H](O)[C@H]1CC[C@H]([C@H](O)CC[C@H](O)[C@@H]2CC[C@@H](CCCCCCCC3=C[C@H](C)OC3=O)O2)O1
**A:** > 50 µM

**Q:** Requested read-out TGI, target or system MDA-MB-435, entry COC(CN(C)C(=S)Nc1cccc2ccccc12)OC
**A:** > 10 µM

**Q:** Requested read-out TGI, target or system MDA-MB-435, entry COCCN(Cc1ccc(F)cc1)c1ccc(CO)c(Cl)c1
**A:** > 100 µM

**Q:** Requested read-out TGI, target or system MDA-MB-435, entry O=C1CC(O)c2cscc21 (centres undefined)
**A:** > 100 µM

**Q:** Requested read-out TGI, target or system MDA-MB-435, entry N#Cc1sc2nc3ccccc3n2c1N
**A:** > 100 µM

**Q:** Requested read-out TGI, target or system MDA-MB-435, entry O=C(Nc1ccc(OC(F)(F)Cl)cc1)c1cnc(N2CC[C@@H](O)C2)c(-c2ccn[nH]2)c1
**A:** 21.7 µM

**Q:** Requested read-out TGI, target or system MDA-MB-435, entry O=C1c2cc(O)c(O)cc2O[C@H](c2ccc(O)c(O)c2)[C@H]1O
**A:** > 100 µM

**Q:** Requested read-out TGI, target or system MDA-MB-435, entry O=C(Nn1c(-c2ccccc2)nc2ccccc2c1=O)c1ccc(Cl)cc1
**A:** > 100 µM

**Q:** Requested read-out TGI, target or system MDA-MB-435, entry Cc1cc(N(CCC#N)CCC#N)ccc1/C(N=Nc1ccccc1)=N\NC(=O)c1cc(Cl)ccc1O
**A:** > 100 µM

**Q:** Requested read-out TGI, target or system MDA-MB-435, entry OCC1CC[N-]CC1.OCC1CC[N-]CC1.[Cl][Pt+2]([Cl])([Cl])[Cl]
**A:** 64.9 µM

**Q:** Requested read-out TGI, target or system MDA-MB-435, entry Cc1cc2nc3c(C#N)c(-c4ccccc4)/c(=C\Nc4ccc(F)cc4)c(=O)n3c2cc1C
**A:** > 100 µM

----------
Test system: TK-10 renal
Experiment: NCI tumour cell line growth inhibition, 48 h
Assign YES to entries whose TGI meets or exceeds 50 µM; assign NO to the rest.

**Q:** Record NC1=NC(Cn2nc(-c3ccccc3)c3ccccc3c2=O)=NNC(=O)N1 ; criterion: TGI no lower than 50 µM. Met?
**A:** YES

**Q:** Record C[C@@H]1CC[C@]2(C)C3(C)CC[C@]2(OC3=O)[C@@]12CC(c1ccoc1)OC2=O (stereo partly specified) ; criterion: TGI no lower than 50 µM. Met?
**A:** YES

**Q:** Record CCc1ccc(Nc2cc(C)c3ccc(O)cc3n2)cc1 ; criterion: TGI no lower than 50 µM. Met?
**A:** NO

**Q:** Record COc1ccc2c(C(=O)O)cc3ccccc3c2c1OC ; criterion: TGI no lower than 50 µM. Met?
**A:** NO

**Q:** Record Cc1ccccc1C(CCCO)C(=O)O (stereo unspecified) ; criterion: TGI no lower than 50 µM. Met?
**A:** YES

**Q:** Record COc1cc(/C=C/c2csnn2)cc(OC)c1OC ; criterion: TGI no lower than 50 µM. Met?
**A:** YES

**Q:** Record CC(=O)Nc1ccc(C2CC(c3ccc([N+](=O)[O-])cc3)=Nc3ccccc3S2=O)cc1 (stereo unspecified) ; criterion: TGI no lower than 50 µM. Met?
**A:** YES

**Q:** Record c1cc(-c2ccc(-c3ccsc3)s2)cs1 ; criterion: TGI no lower than 50 µM. Met?
**A:** YES

**Q:** Record COc1ccc2nc3c(c(N)c2c1)C1CCC3C1(C)C (stereo unspecified) ; criterion: TGI no lower than 50 µM. Met?
**A:** YES

**Q:** Record CC(C)(C)OC(=O)N(CCCCNC(=O)C(F)(F)F)CCCNC(=O)C(F)(F)F ; criterion: TGI no lower than 50 µM. Met?
**A:** YES

----------
Test system: HOP-18 NSCLC
Test: NCI tumour cell line growth inhibition, 48 h
PROPERTY: TGI

**Q:** Requested read-out TGI, target or system HOP-18 NSCLC, entry CC(C)Cc1ccc(C(C)/C=C2\CCC(CN(C)C)C2=O)cc1 (stereo unspecified)
**A:** 32.2 µM

**Q:** Requested read-out TGI, target or system HOP-18 NSCLC, entry COc1ccc2c(C(=O)O)cc3ccccc3c2c1OC
**A:** 28.9 µM

**Q:** Requested read-out TGI, target or system HOP-18 NSCLC, entry CCCCCCCCOCC(COC(=O)CCCCCCC)OC(=O)CCCCCCC (stereo unspecified)
**A:** > 100 µM

**Q:** Requested read-out TGI, target or system HOP-18 NSCLC, entry OC(c1ccccc1Br)(c1ccccc1Br)C(F)(F)F
**A:** > 100 µM

**Q:** Requested read-out TGI, target or system HOP-18 NSCLC, entry C=C(C#N)C(=O)OCC(CC)CC.C=C(C#N)C(=O)OCC(CC)CC.CS(C)=O.CS(C)=O.Nc1c(N=Nc2ccc(-c3ccc(N=Nc4cc(S(=O)(=O)[O-])c5ccccc5c4N)cc3)cc2)cc(S(=O)(=O)[O-])c2ccccc12.[Pt+2]
**A:** 53.9 µM

**Q:** Requested read-out TGI, target or system HOP-18 NSCLC, entry COc1ccc(/C=C2\C(=O)N(NC(C)=O)c3ccccc32)cc1
**A:** > 100 µM

----------
Test system: HOP-92 NSCLC
Assay: NCI tumour cell line growth inhibition, 48 h
PROPERTY: log10 of TGI (log10 of the value in µM)
// units: µM (pre-log); metric: TGI; scale: log10

**Q:** Quick check: log10 of TGI of CSC(=O)/C=C1\SS/C(=C\C(=O)SC)S1 ?
**A:** 0.90

**Q:** Quick check: log10 of TGI of COc1cc(C(=O)/C=C/c2cccc(Nc3ccnc4cc(Cl)ccc34)c2)cc(OC)c1OC ?
**A:** 0.77

**Q:** Quick check: log10 of TGI of CC(C)C(Cl)CCC(C)(Cl)C(=O)CBr (stereo unspecified) ?
**A:** 1.38

**Q:** Quick check: log10 of TGI of CCC(c1ccccc1)c1noc(CCN(CC)CC)n1 (stereo unspecified) ?
**A:** 1.70

**Q:** Quick check: log10 of TGI of COC(=O)C(C(=O)C(=O)Nc1c(Cl)cc([N+](=O)[O-])cc1Cl)c1csc(-n2nc(C3=CCCCC3)cc2-c2ccccc2)n1 (stereo unspecified) ?
**A:** 1.89

**Q:** Quick check: log10 of TGI of Cc1ccc(S(=O)(=O)N(CC(O)COc2ccccc2)c2c(F)cccc2F)cc1 (stereo unspecified) ?
**A:** 0.93

**Q:** Quick check: log10 of TGI of COc1ccc2c(C(=O)O)cc3ccccc3c2c1OC ?
**A:** 1.65

**Q:** Quick check: log10 of TGI of COCCOC1=C(Cl)C(=O)c2ccccc2C1=O ?
**A:** 0.47

**Q:** Quick check: log10 of TGI of Cc1ccc(NC(=O)c2cc(S(=O)(=O)Nc3nnc(-c4ccccc4)c(-c4ccccc4)n3)c(SCc3ccccc3)cc2Cl)cc1 ?
**A:** 1.63

**Q:** Quick check: log10 of TGI of Fc1ccc(NC(c2ccc(F)cc2)C2CCN(CCCCc3ccccc3)CC2)cc1 (stereo unspecified) ?
**A:** 0.53

**Q:** Quick check: log10 of TGI of CCN(CC)CCNc1ccc2ncn3c4ccc(O)cc4c(=O)c1c23 ?
**A:** 1.11

**Q:** Quick check: log10 of TGI of C[C@@H]1CC[C@]2(C)C3(C)CC[C@]2(OC3=O)[C@@]12CC(c1ccoc1)OC2=O (stereo partly specified) ?
**A:** 1.84

**Q:** Quick check: log10 of TGI of CCOC(=O)/C(=C\c1cccc(C)c1)C(C)=O ?
**A:** 1.54

**Q:** Quick check: log10 of TGI of COC(=O)[C@@]12OC[C@]34C([C@@H](O)C1O)[C@@]1(C)CC(=O)C(OC(=O)CC(C)C(F)(F)F)=C(C)C1C[C@H]3OC(=O)[C@H](O)[C@H]42 (stereo partly specified) ?
**A:** 1.36

**Q:** Quick check: log10 of TGI of Cc1cnc(C(=O)NNc2nc3sc4c(c3c(=O)[nH]2)C(C)CCC4)cn1 (stereo unspecified) ?
**A:** 1.80

**Q:** Quick check: log10 of TGI of S=C1SCN(Cc2ccccc2)CN1Cc1ccco1 ?
**A:** 1.04

**Q:** Quick check: log10 of TGI of O=[N+]([O-])c1ccc(/C=N/Nc2nc3ccccc3[nH]2)o1 ?
**A:** 1.59

**Q:** Quick check: log10 of TGI of COc1ccc(CCCCNCc2cccc(CNCCCCc3ccc(OC)cc3)c2)cc1 ?
**A:** 0.46

**Q:** Quick check: log10 of TGI of COCCN(Cc1ccc(F)cc1)c1ccc(CO)c(Cl)c1 ?
**A:** 1.78

**Q:** Quick check: log10 of TGI of O=C(c1cccs1)c1c(C(F)(F)F)n([O-])c2cc(Cl)c(Cl)cc2[n+]1=O ?
**A:** 0.45

**Q:** Quick check: log10 of TGI of CCc1cccc(CC)c1NC(=O)/C(Cl)=C(/Cl)C(=O)O ?
**A:** 1.62

**Q:** Quick check: log10 of TGI of NCCOc1cccc(C2(N3CCCCC3)CCCCC2)c1 ?
**A:** 1.98

**Q:** Quick check: log10 of TGI of OCCCCC#Cc1ccccc1C#Cc1cccc(C(F)(F)F)c1 ?
**A:** 1.56
